Values from paper PMC10786891

Target desc: T1, EsCas13d, nuclease-dead (Eubacterium siraeum, UniProt B0MS50, R295A;H300A;R849A;H854A)
T1 sequence: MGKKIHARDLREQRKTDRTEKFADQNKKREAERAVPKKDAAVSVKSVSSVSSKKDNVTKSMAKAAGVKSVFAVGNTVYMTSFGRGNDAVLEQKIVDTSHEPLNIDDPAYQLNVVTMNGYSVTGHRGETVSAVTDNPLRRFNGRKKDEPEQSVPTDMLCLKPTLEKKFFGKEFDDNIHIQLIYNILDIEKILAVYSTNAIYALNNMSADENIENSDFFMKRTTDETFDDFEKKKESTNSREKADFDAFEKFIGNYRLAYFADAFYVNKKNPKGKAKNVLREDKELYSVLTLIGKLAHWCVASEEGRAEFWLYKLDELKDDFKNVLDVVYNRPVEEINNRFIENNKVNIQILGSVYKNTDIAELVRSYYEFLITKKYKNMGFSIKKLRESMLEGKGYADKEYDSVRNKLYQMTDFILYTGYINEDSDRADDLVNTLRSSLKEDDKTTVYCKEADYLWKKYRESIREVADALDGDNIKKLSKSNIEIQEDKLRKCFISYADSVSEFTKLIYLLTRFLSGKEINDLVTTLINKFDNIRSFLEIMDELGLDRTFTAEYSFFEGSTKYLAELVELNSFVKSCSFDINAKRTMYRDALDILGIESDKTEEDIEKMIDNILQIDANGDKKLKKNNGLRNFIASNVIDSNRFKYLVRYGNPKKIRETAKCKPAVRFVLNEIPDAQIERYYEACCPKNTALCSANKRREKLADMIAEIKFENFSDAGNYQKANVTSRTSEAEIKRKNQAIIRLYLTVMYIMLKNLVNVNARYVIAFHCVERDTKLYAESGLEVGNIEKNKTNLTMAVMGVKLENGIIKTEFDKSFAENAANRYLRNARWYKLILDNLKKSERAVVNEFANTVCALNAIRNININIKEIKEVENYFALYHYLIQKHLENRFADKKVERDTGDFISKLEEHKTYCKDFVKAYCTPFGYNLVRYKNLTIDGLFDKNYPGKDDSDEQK
Test method notes: crRNA (strand 1, pre-loaded); Mg2+; 40 mM Tris-HCl pH 7.5, 150 mM NaCl, 6 mM MgCl2, 1 mM DTT, 0.1% Tween-20, 0.2 mg/ml BSA; 25 C; 10 min per concentration, then washed
Measurement setup: tags: His6-TwinStrep-SUMO cleaved; N-terminal SNAP kept (SNAP-Surface 488); label: 3' end held by stalled T7 RNA polymerase
pKd: −log10 of the molar value.
Decision: pKd >= 8 yields Yes, all other cases yield No.

Query string: Please indicate if the recorded pKd for target 1 MT 5'PFS AAG 3'PFS AUG (mixed) RNA 1: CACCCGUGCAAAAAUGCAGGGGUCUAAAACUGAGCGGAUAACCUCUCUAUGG RNA 2: GGGAAUGGAUCCACAUCUACGAAUUCAAGCCAUAGAGAGGUUAUCCGCUCAAUGAGAUCGGAAGAGCACACGU meets or exceeds 8.
Result string: No

Query string: Is pKd for target 1 C2G,C6A (mixed) RNA 1: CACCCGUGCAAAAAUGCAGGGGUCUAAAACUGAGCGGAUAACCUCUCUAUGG RNA 2: GGGAAUGGAUCCACAUCUACGAAUUCGUACCAUAGAGAGGUUAUCAGCUGACCGAGAUCGGAAGAGCACACGU at or above 8?
Result string: Yes

Query string: Record target 3 C1U,G3C (mixed) RNA 1: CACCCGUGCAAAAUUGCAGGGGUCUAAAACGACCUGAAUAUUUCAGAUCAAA RNA 2: GGGAAUGGAUCCACAUCUACGAAUUCGUUUUUGAUCUGAAAUAUUCAGCUUUGCAGAUCGGAAGAGCACACGU ; criterion: pKd no lower than 8. Met?
Result string: No

Query string: Does pKd meet or surpass 8 for target 3 A12G,A18G (mixed) RNA 1: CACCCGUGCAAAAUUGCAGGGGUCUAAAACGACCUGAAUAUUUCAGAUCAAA RNA 2: GGGAAUGGAUCCACAUCUACGAAUUCGUUUUUGGUCUGAGAUAUUCAGGUCUGCAGAUCGGAAGAGCACACGU ?
Result string: No

Query string: # check: pKd of target 1 insC 3' of 15,insU 3' of 1 (mixed) RNA 1: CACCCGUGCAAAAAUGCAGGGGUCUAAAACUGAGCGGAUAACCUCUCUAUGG RNA 2: GGGAAUGGAUCCACAUCUACGAAUUCGUACCAUAGAGCAGGUUAUCCGCUCAUCCGAGAUCGGAAGAGCACACGU is greater than or equal to 8
Result string: No

Query string: API: above_or_equal(metric=pKd, cutoff=8) for item target 2 MT 5'PFS AAG 3'PFS CGC (mixed) RNA 1: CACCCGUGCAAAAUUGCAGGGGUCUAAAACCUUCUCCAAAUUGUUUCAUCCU RNA 2: GGGAAUGGAUCCACAUCUACGAAUUCAAGAGGAUGAAACAAUUUGGAGAAGCGCAGAUCGGAAGAGCACACGU
Result string: Yes

Query string: pKd >= 8 for target 3 insC 3' of 3,insA 3' of 1 (mixed) RNA 1: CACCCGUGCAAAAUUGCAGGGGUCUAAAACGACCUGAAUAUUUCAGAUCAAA RNA 2: GGGAAUGGAUCCACAUCUACGAAUUCGUUUUUGAUCUGAAAUAUUCAGGCUCAUGCAGAUCGGAAGAGCACACGU ?
Result string: No

Query string: Is pKd for target 1 G5A,U11C (mixed) RNA 1: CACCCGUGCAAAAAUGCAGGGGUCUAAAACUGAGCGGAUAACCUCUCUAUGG RNA 2: GGGAAUGGAUCCACAUCUACGAAUUCGUACCAUAGAGAGGCUAUCCACUCACCGAGAUCGGAAGAGCACACGU at or above 8?
Result string: No

Query string: # bool: pKd of target 1 MT 5'PFS CCU 3'PFS ACG (mixed) RNA 1: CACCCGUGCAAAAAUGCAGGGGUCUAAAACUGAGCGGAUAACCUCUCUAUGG RNA 2: GGGAAUGGAUCCACAUCUACGAAUUCCCUCCAUAGAGAGGUUAUCCGCUCAACGAGAUCGGAAGAGCACACGU >= 8
Result string: No
